Cited source: patent US6914045B2

System: Enterococcus sp.
Test: in vitro antibacterial evaluation, MIC by broth dilution
Type: cell-based
Details: broth dilution, 18 hours at 35° C.
measurement-name: MIC Enterococcus faecalis (GC 3059) (µg/mL)
Number in µg/mL, nothing else.

molecule="CC(c1ccccc1)C1NC(=O)CNC(=O)C(CO)NC(=O)C(C(O)C2CNC(=N)N2C2OC(CO)C(O)C(O)C2O)NC(=O)C(C(O)C2CNC(=N)N2)NC(=O)C(Cc2ccc(OC3OC(CO)C(OC4OC5COC6(CCSCC6)OC5C(O)C4O)C(O)C3O)cc2)NC1=O (stereo not shown)" value=32

// switching to the query molecule
Enquiry: MIC Enterococcus faecalis (GC 3059) for CC(c1ccccc1)C1NC(=O)CNC(=O)C(CO)NC(=O)C(C(O)C2CNC(=N)N2C2OC(CO)C(O)C(O)C2O)NC(=O)C(C(O)C2CNC(=N)N2)NC(=O)C(Cc2ccc(OC3OC(CO)C(OC4OC5COC6(CCCCCCCCCCCC6)OC5C(O)C4O)C(O)C3O)cc2)NC1=O (stereo not shown) ?
Return: 32
